# credit: ChEMBL document CHEMBL1153595

# Target or test system: Mitogen-activated protein kinase 10 (Homo sapiens)
# Sequence (P53779 whole entry): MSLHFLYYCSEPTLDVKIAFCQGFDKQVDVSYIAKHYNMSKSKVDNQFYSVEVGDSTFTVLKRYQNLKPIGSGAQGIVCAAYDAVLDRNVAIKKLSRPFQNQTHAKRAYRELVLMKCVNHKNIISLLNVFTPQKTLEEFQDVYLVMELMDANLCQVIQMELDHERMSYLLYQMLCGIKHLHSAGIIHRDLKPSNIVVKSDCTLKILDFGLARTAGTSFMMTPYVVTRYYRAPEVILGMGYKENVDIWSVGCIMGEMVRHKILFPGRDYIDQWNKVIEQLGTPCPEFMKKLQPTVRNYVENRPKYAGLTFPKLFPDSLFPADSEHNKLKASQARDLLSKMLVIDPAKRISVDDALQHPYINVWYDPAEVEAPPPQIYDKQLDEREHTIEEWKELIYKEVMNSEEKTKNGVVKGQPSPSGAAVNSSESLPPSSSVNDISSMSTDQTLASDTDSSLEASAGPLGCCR
# Assay protocol: Inhibition of JNK3 by spectrophotometric coupled enzyme assay
Quantity name: Ki (µM)
Your answer should be a plain number; it is taken to be in µM.

Study these solved cases before continuing.
Prompt: Specify measured Ki for O=C1/C(=N\O)c2c(Br)cccc2N1Cc1cc(F)cc2c1OCOC2 .
Response: 0.185

Prompt: Please give the documented Ki of O=Nc1c(O)n(Cc2ccc(Cl)cc2)c2ccccc12
Response: 6.7

Prompt: Let me know recorded Ki for O=Nc1c(O)n(Cc2cccc(Cl)c2)c2ccccc12 , thanks.
Response: 5

Prompt: Report Ki, nothing else, for this compound: N#Cc1cccc2c1/C(=N/O)C(=O)N2Cc1cc(F)cc2c1OCOC2
Response: 2

Prompt: State its Ki: O=C1/C(=N\O)c2ccc(-c3ccccc3)cc2N1Cc1cc(F)cc2c1OCOC2
Response: 0.2

Prompt: Give the value of Ki reported for the following: O=C1/C(=N\O)c2ccccc2N1Cc1ccccc1F
Response: 8.5

Now, please, on to the next compound.
Prompt: Entry O=C1/C(=N\O)c2cc(Cl)ccc2N1Cc1ccccc1 needs its Ki filled in; supply it.
Response: 12

====

// values below are reported pKi
# Target or test system: Mitogen-activated protein kinase 10 (Homo sapiens)
# Assay protocol: Inhibition of JNK3 by spectrophotometric coupled enzyme assay
pKi is a log-scale quantity: -log10 of the concentration expressed in molar.

Prompt: Return reported pKi. Input molecule: O=C1/C(=N\O)c2ccccc2N1Cc1cc(F)cc2c1OCOC2
Response: 6.29

Prompt: Find the measured pKi of O=C1/C(=N\O)c2ccc(Br)cc2N1Cc1cc(F)cc2c1OCOC2 and report it.
Response: 7.00

Prompt: Note pKi for the molecule shown: CCc1cccc2c1/C(=N/O)C(=O)N2Cc1cc(F)cc2c1OCOC2
Response: 5.85

Prompt: Answer with the recorded pKi of O=C1/C(=N\O)c2ccccc2N1Cc1cccc([N+](=O)[O-])c1 only.
Response: 6.03

More entries:
Prompt: Give the reported pKi for this molecule. O=C1/C(=N\O)c2cc(Br)ccc2N1Cc1ccccc1
Response: 5.60

====

# Target or test system: Mitogen-activated protein kinase 10 (Homo sapiens)
# Assay protocol: Inhibition of JNK3 by spectrophotometric coupled enzyme assay
pKi: −log10 of the molar value.
Please enter True where pKi is greater than or equal to 6, and False where it is lower.

Observe how each entry below is paired with its result.
Prompt: Is it the case that CCC(=O)Nc1ccc2c(c1)N(Cc1cc(F)cc3c1OCOC3)C(=O)/C2=N\O has pKi reaching or exceeding 6?
Response: True

Prompt: Dear colleague, could you confirm whether O=Nc1c(O)n(Cc2ccccc2)c2ccccc12 has pKi at or above 6?
Response: False

Prompt: // inclusive: pKi at least 6? input: O=C1/C(=N\O)c2ccccc2N1Cc1ccc([N+](=O)[O-])cc1
Response: False

Prompt: Reported pKi reaches at least 6 for O=C1/C(=N\O)c2ccc([N+](=O)[O-])cc2N1Cc1cc(F)cc2c1OCOC2 ?
Response: True

Prompt: Does pKi meet or surpass 6 for O=C1/C(=N\O)c2ccc(C(F)(F)F)cc2N1Cc1cc(F)cc2c1OCOC2 ?
Response: True

Next:
Prompt: Hi team, for O=Nc1c(O)n(Cc2cccc(C(F)(F)F)c2)c2ccccc12 , is the recorded pKi at or above 6?
Response: False

Prompt: Does COc1ccc2c(c1)N(Cc1cc(F)cc3c1OCOC3)C(=O)/C2=N\O have a reported pKi of at least 6?
Response: True

Prompt: Could you tell me if the measured pKi of O=C1/C(=N\O)c2c(-c3ccc(F)cc3)cccc2N1Cc1cc(F)cc2c1OCOC2 reaches 6 or more?
Response: False

Prompt: hey, is pKi for this one >= 6? C=Cc1cccc2c1/C(=N/O)C(=O)N2Cc1cc(F)cc2c1OCOC2
Response: True
